Tested on: C-33A (Cervical carcinoma)
Test: Cell viability analysis, cervical cancer C-33A
Type: cell-based, human
Details: Homo sapiens, 72 h; C-33A; repeated experiment; read-out: The results of antibiotic drug inhibiting cancer cell lines (cell viability analysis), C-33A
Measured Parameter: viability at 10 µM

Specify viability at 10 µM for CCCCCCCCCCCCCCCC[N+](C)(C)CCN(Cc1ccc(OC)cc1)c1ncccn1 [Thonzonium Bromide] and stop. 32.5%

Note viability at 10 µM for the molecule shown: NC(=O)N/N=C/c1ccc([N+](=O)[O-])o1 [Nitrofurazone (Nitrofural), Nitrofurazone] 83.2%

Given COC(=O)Nc1nc2ccc([S+]([O-])c3ccccc3)cc2[nH]1 (stereo not shown) [Oxfendazole] , respond with its viability at 10 µM. 86.4%

Answer with the recorded viability at 10 µM of CC(C)/N=c1\cc2n(-c3ccc(Cl)cc3)c3ccccc3nc-2cc1Nc1ccc(Cl)cc1 [Clofazimine] only. 111%
